target or system: T1, human EphA4 (Homo sapiens, UniProt P54764)
T1 construct: made in house; not restated for the human SEAP-His protein
T1 sequence (P54764 20-547): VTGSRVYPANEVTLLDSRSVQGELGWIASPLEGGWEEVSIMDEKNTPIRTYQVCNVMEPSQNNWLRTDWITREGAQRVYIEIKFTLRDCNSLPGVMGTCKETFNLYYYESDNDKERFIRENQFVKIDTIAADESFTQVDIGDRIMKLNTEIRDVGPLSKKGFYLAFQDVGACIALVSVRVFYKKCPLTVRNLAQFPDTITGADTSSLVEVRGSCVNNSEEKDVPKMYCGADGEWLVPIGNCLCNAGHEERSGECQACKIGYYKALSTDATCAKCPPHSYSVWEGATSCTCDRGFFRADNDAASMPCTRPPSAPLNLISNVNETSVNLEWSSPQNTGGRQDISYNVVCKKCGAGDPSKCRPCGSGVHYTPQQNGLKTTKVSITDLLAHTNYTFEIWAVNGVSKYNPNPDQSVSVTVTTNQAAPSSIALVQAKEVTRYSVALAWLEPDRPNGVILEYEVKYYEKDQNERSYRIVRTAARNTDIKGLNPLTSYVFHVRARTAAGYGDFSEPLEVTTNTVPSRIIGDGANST
experiment description: Affinity of humanized antibodies by SPR (Biacore T200)
Type: binding
reported conditions: human EphA4 extracellular region-SEAP-His; KD=kd/ka
property measured: Kd (nM)
Write the value in nM as a bare number.

Quick check: Kd of 92 (antibody, V domains shown, constant regions without entry; synthetic humanized antibody light chain variable region sequence; synthetic humanized antibody heavy chain variable region sequence) VL: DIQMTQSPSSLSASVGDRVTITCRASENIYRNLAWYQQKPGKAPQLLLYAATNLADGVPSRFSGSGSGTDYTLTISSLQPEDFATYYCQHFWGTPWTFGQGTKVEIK VH: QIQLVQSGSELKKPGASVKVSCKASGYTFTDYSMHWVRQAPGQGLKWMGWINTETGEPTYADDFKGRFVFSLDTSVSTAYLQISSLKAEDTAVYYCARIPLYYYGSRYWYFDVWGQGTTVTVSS ?
1.3

What does the data say about its Kd? Entry: 86 (antibody, V domains shown, constant regions without entry; synthetic humanized antibody light chain variable region sequence; synthetic humanized antibody heavy chain variable region sequence) VL: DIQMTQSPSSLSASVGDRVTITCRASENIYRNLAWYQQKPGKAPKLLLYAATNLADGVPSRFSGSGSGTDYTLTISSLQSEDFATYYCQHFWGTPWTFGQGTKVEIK VH: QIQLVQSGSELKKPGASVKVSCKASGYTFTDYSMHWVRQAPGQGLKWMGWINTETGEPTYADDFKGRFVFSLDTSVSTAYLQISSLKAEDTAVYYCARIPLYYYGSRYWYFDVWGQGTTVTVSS
1.5

Cited source: patent US10428140B2
